Target Desc: HLA-A*02:03
Measurement Description: IEDB peptide-MHC binding, purified MHC/competitive/radioactivity; bounds were set here for any values at or beyond the usual limits of such assays
Stated Conditions: source organism: Vaccinia virus WR
Listing: pIC50 of selected sequences
# pIC50 is unitless: minus log10 of the molar concentration; print number only

Entry Sequence	pIC50
FTSDYPFYV	8.41
NITTLLNETA	6.97

Could you share which pIC50 value was measured for KIDILQMREI ?
6.38

Could you share which pIC50 value was measured for VQSVLRDISI ?
6.27

Could you share which pIC50 value was measured for RVLYDEFVT ?
5.85

Could you share which pIC50 value was measured for IMRNFLRSIA ?
6.91

Could you share which pIC50 value was measured for IMAFILGII ?
7.52

Could you share which pIC50 value was measured for LVFNSISARA ?
6.60

Could you share which pIC50 value was measured for ETIEILRNYL ?
5.85
